Target: T1, biotinylated human BCMA-Fc, Avitag recombinant protein (ACRO Biosystems, #BC7-H82F0) (human, UniProt Q02223 1-54, biotinylated)
T1 construct: extracellular domain; Bought protein; also called human BCMA protein; recombinant human BCMA-ECD-Fc; not shown: Fc of the bought fusion protein; Avitag
T1 sequence (looked up): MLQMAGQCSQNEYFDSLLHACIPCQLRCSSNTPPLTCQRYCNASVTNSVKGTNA
Test: BLI (Octet Red96e), biotinylated BCMA-Fc on SA sensor, antibody in solution, 1:1 global fit
Quick list: Kd per entry.
Record the value in nM, omitting the unit from your answer.

Previously resolved entries follow.
PR001035, anti-BCMA HCAb antibody, clone 1005P36F3 (antibody, human IgG1, V domains shown, Heavy-chain-only antibody (HCAb), human IgG1 Fc, no light chain) VH: EVQLVETGGGLIQPGGSLRLSCAASGFTVSSNYMTWVRQAPGKGLEWVSVIFSGGSTYYADSVKGRFTISRDNSKNTLYLQMNSLRAEDTAVYYCARRIAVAGHDVFDIWGQGTMVTVSS; 0.276
PR000940, anti-BCMA HCAb antibody, clone 1005P10H8 (antibody, human IgG1, V domains shown, Heavy-chain-only antibody (HCAb), human IgG1 Fc, no light chain) VH: EVQLLESGGGLVQPGGSLRLSCAASGFTFSSYAMIWVRQAPGKGLEWVSGISESGGSTYYADSVKGRFTISRDNSKNTLYLQMNSLRAEDTAVYFCVKDLDDILTGYYKDYWGQGTLVTVSS; 0.152

response.value for PR001046, anti-BCMA HCAb antibody, clone 1005P63B7 (antibody, human IgG1, V domains shown, Heavy-chain-only antibody (HCAb), human IgG1 Fc, no light chain) VH: EVQLVETGGGLIQPGGSLRLSCAASGFTVSDNYMTWVRQAPGKGLEWVSVIFSGGNTYYADSVKGRFTISRDNAKNTLYLQMNSLRAEDTALYYCARRNYDDTRGTDVFDIWGQGTMVTVSS (field: Kd) = 0.0253

Entry PR000943, anti-BCMA HCAb antibody, clone 1005P16A10 (antibody, human IgG1, V domains shown, Heavy-chain-only antibody (HCAb), human IgG1 Fc, no light chain) VH: EVQLVETGGGLIQPGGSLRLSCAASGFPVSSNYMSWVRQAPGKGLEWVSVIFSGGRTYYADSVKGRFTISRDNSKNTLYLQMNSLRAEDTAVYYCARRNWIDGRDAFDIWGQGTMVTVSS ; Kd = 0.162

Attribution: patent US20230322953A1
